- Tested on: SK-OV-3
- test-description: Antiproliferative activity against human SKOV3 cells assessed as reduction in cell viability incubated for 24 hrs by SRB assay
- Type: functional, cell-based
- experimental-parameters: SK-OV-3, 24 h
measured-property: IC50 (nM)

The examples below pair each entry with its known result.
compound: CC/C=C\C/C=C\C/C=C\C/C=C\C/C=C\C/C=C\CCC(=O)N[C@H]1CCc2cc(OC)c(OC)c(OC)c2-c2ccc(SC)c(=O)cc21
assay-system: SK-OV-3
IC50 / nM: 2630
--
compound: COc1cc(/C=C/C(=O)N[C@H]2CCc3cc(OC)c(OC)c(OC)c3-c3ccc(SC)c(=O)cc32)ccc1O
assay-system: SK-OV-3
IC50 / nM: 24.8
--
compound: COc1cc2c(c(OC)c1OC)-c1ccc(SC)c(=O)cc1[C@@H](NC(=O)Cc1ccccc1Nc1c(Cl)cccc1Cl)CC2
assay-system: SK-OV-3
IC50 / nM: 1500
--
compound: COc1cc2c(c(OC)c1OC)-c1ccc(SC)c(=O)cc1[C@@H](NC(=O)CCC1=C(C)c3cc4[nH]c(cc5nc(cc6[nH]c(cc1n3)c(CCC(=O)N[C@H]1CCc3cc(OC)c(OC)c(OC)c3-c3ccc(SC)c(=O)cc31)c6C)C(C(C)O)=C5C)c(C(C)O)c4C)CC2 (some centres undefined)
assay-system: SK-OV-3
IC50 / nM: 2860
--
compound: COc1cc2c(c(OC)c1OC)-c1ccc(OC)c(=O)cc1[C@@H](NC(C)=O)CC2
assay-system: SK-OV-3
IC50 / nM: 18
--
compound: COc1cc2c(c(OC)c1OC)-c1ccc(SC)c(=O)cc1[C@@H](NC(=O)[C@H](O)[C@@H](O)[C@H](O)[C@H](O)CO)CC2
assay-system: SK-OV-3
IC50 / nM: 29.8

A = C=C(C)[C@@H]1CC=C(C(=O)N[C@H]2CCc3cc(OC)c(OC)c(OC)c3-c3ccc(SC)c(=O)cc32)CC1
B = COc1cccc2c1C(=O)c1c(O)c3c(c(O)c1C2=O)C[C@@](O)(C(=O)CO)C[C@@H]3O[C@H]1C[C@H](N)[C@H](O)[C@H](C)O1
C = CCCCCCCCCCCCCC[C@H]1OC(C)(C)O[C@H]1[C@@H](NC(=O)OC(C)(C)C)C(=O)N[C@H]1CCc2cc(OC)c(OC)c(OC)c2-c2ccc(SC)c(=O)cc21
Order each entry by recorded IC50, climbing from the minimum. A ranking is expressed here by listing the labels in the requested order.
A, B, C
